Entry source: ChEMBL document CHEMBL5226317

# Test system: HCT-8
# EXPERIMENTAL DETAILS: Cytotoxicity against human HCT-8 cells
# Format: functional, cell-based
PARAMETER MEASURED: pIC50
As a rule, pIC50 stands for the negative log10 of the concentration, concentration in M.

Query: # lookup: pIC50 of "CC[C@@]1(O)C(=O)OCc2c1cc1n(c2=O)Cc2cc3c(/C=C(\C)C(=O)OC)c(O)ccc3nc2-1"
Result: 7.52

---

# Test system: A549
# EXPERIMENTAL DETAILS: Antiproliferative activity against human A549 cells
# Assay type: functional, cell-based
PARAMETER MEASURED: IC50 (nM)
I only need the number, in nM, no unit after it.

Query: Fill in the recorded IC50 for this molecule, with A549 as test system: "CC[C@@]1(O)C(=O)OCc2c1cc1n(c2=O)Cc2c-1nc1ccccc1c2CN1CCN(C(=S)Nc2cccc3ccccc23)CC1"
Result: 59
